# System under test: HLA-B*5401 (human)
# Method: competition vs 125I-labelled probe peptide, purified HLA, gel filtration
# Assay context: remark: other sources report otherwise
pIC50: −log10 of the molar value.
Endpoint name: pIC50

> print(dat)
                                     binder  endpoint.name  recorded.number
1  LPQPPICTI (modifications not checked) [Her2/neu.941]          pIC50             7.72
